Target: T1, Recombinant human TSLPR-Fc (human, UniProt Q9HC73 23-231)
T1 construct: also called recombinant human soluble TSLPR-Fc fusion protein; not shown: Fc part
T1 sequence: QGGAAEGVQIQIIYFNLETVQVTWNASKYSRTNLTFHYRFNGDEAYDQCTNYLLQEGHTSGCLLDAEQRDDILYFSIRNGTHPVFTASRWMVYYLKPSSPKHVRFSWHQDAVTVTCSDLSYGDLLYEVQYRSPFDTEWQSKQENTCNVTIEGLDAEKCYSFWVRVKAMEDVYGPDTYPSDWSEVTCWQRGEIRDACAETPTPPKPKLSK
Assay: blocking ELISA: antibody on coated TSLPR-Fc, then TSLP + IL7Rα-Fc; TSLP binding detected

Binder	Unit name	IC50
TSLPR-012 (hamster) (antibody, V domains shown, Parent Armenian hamster monoclonal antibody; the hamster constant regions are not; also called TSLP-012; hamster antibody TSLPR-012) VH: QIQLQESGPGLVKPSQSLSLTCSVTGFSITTSGYYWTWIRQFPGKKLEWMGYIGYNSKTYYNPSLKSRISITRDTSKNQFLLHLNSVTTEDTATYYCARSLYGGYKDAFDSWGQGTLVTVSS VL: DVVLTQTPATLSAIPGERVTMTCKASQSIGTSLHWYQHRPNETPRLLIKFASRSITGIPSRFSGSGSGTDFTLGINNLEAEDFAIYYCQQSPGFPPTFGSGTKLEINR	ng/mL	8.8
